Hello, the source for this data is paper PMC11161652, in case you need it.

B1: PHD2 and PHD3 fingers of human MLL4 (aa 227-324) [human] / ASXL2 peptide (residues 650-670 of ASXL2) [human] (parent complex)
chain 1: ARCAVCEGPGELCDLFFCTSCGHHYHGACLDTALTARKRAGWQCPECKVCQACRKPGNDSKMLVCETCDKGYHTFCLKPPMEELPAHSWKCKACRVCR
chain 2: NRTGARTLADIKAKAQLVKAQ

Variants of: B1
assay summary: fluorescence spectroscopy
assay readout: Kd (µM)
Numbers only, in µM.

// Kd lookup, variant = chain 1 ARCAVCEGPGELCDLFFCTSCGHHYHGACLDTALTARKRAGWQCPECKVCQACRKPGNDSKMLVCKTCDKGYHTFCLKPPMEELPAHSWKCKACRVCR [chain 1 E66K] , result: 10
